B1: Myocardin-related transcription factor A, residues 341 to 383; numbered along this chain, Q969V6 (parent)
chain: GALPANLDDMKVAELKQELKLRSLPVSGTKTELIERLRAYQDQ

# Variants of: B1
# assay.info: abundance fitness (aPCA) (normalised: wild type 0, dead -1); higher = more abundant; growth selection in yeast, the domain comes from the species named
# assay.context: Homo sapiens
experimental.readout: abundance fitness

Name the recorded abundance fitness for GALPANLDDMKVAELKQELKLRRLPVSGTKTELIERLRAYQDQ [S23R] .
-0.036

Would you kindly repeat that for GALPANLDDMKVAELKQELKLRSLPYSGTKTELIERLRAYQDQ [V26Y] ?
-0.031

Would you kindly repeat that for GALPANLDDMKVAELKQELKLQSLPVSGTKTELIERLRAYQDQ [R22Q] ?
-0.079

Would you kindly repeat that for GALPANLDDMKVAELKQELKLRSIPVSGTKTELIERLRAYQDQ [L24I] ?
-0.425

Would you kindly repeat that for GALPANLDDMKVAELKQELKLRSLYVSGTKTELIERLRAYQDQ [P25Y] ?
-0.293

Would you kindly repeat that for GALPANLDDMKVAELKQELKQRSLPVSGTKTELIERLRAYQDQ [L21Q] ?
0.061
